Data provenance is patent US20180305431A1.

In this section, each of the binders is paired with its reported relative binding affinity (% rel to HI).
Target: T1, solubilised human IR-A (semipurified by wheat germ agglutinin chromatography from baby hamster kidney (BHK) … (human, UniProt P06213-2 28-1370))
T1 construct: mature; Detergent-solubilised holoreceptor captured by anti-IR mouse antibody 83-7 on SPA beads; the precursor is processed into alpha and beta chains; also called hIRA; human insulin receptor (IR), A isoform
T1 sequence (P06213 other isoform, or with tags, fused parts or gaps limits assumed): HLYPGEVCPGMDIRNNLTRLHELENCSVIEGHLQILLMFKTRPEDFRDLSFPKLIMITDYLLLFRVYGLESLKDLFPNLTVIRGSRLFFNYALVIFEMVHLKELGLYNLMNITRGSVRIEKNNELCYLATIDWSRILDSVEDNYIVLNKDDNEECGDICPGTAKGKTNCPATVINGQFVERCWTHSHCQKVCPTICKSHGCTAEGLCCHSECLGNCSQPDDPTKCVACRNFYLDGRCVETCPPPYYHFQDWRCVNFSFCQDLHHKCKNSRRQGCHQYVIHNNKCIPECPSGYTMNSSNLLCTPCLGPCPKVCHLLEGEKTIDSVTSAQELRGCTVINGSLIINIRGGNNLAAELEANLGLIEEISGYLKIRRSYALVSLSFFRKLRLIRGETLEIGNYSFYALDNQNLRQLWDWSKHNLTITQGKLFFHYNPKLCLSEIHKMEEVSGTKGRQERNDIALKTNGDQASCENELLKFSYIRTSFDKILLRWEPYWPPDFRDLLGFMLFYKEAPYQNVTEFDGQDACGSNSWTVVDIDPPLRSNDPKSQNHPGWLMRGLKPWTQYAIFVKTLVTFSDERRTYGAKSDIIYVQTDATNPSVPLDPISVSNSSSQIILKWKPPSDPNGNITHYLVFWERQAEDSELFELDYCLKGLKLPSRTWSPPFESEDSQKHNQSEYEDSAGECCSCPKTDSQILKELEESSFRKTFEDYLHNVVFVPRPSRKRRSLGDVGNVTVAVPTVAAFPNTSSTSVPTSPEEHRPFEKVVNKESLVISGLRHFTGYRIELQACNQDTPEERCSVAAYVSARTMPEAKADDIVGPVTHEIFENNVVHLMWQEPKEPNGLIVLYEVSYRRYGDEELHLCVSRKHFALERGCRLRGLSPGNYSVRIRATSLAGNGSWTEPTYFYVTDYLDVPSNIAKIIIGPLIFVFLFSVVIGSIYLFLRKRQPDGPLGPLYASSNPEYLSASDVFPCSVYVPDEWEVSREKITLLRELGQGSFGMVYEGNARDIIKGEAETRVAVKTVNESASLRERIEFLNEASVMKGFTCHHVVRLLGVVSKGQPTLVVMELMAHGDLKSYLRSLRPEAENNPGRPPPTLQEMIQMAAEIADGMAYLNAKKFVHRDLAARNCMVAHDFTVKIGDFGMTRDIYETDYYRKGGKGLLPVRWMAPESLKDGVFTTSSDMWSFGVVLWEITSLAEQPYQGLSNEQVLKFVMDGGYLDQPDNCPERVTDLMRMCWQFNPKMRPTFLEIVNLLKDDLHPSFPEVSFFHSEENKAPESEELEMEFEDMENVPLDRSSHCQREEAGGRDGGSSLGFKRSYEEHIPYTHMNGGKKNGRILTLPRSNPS
Test: SPA competition vs [125I-A14Y]-human insulin, solubilised hIR-A, 0% HSA

Binder	Readout	Obs value
A14E, A22K(N(eps)tetradecanedioyl-4xgGlu), B3E, B27E, B28E, B29R, desB30 human insulin (ligand, not fully specified; Lys A22 acylated on N(eps) with tetradecanedioyl-4xgGlu, Two-chain acylated insulin analogue; also called Ex. No. 4) chain 1: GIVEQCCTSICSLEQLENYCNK chain 2: FVEQHLCGSHLVEALYLVCGERGFFYEER	relative binding affinity (% rel to HI)	47.4 % rel to HI
A14E, A22K(N(eps)tetradecanedioyl-4xgGlu), B3Q, B28D, B29R, desB30 human insulin (ligand, not fully specified; Lys A22 acylated on N(eps) with tetradecanedioyl-4xgGlu, also called Ex. No. 8) chain 1: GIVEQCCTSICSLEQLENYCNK chain 2: FVQQHLCGSHLVEALYLVCGERGFFYTDR	relative binding affinity (% rel to HI)	95.6 % rel to HI
A8R, A22K(N(eps)tetradecanedioyl-4xgGlu), B3E, B26E, B27P, B28R, desB29, desB30 human insulin (ligand, not fully specified; Lys A22 acylated on N(eps) with tetradecanedioyl-4xgGlu, also called Ex. No. 16) chain 1: GIVEQCCRSICSLYQLENYCNK chain 2: FVEQHLCGSHLVEALYLVCGERGFFEPR	relative binding affinity (% rel to HI)	317 % rel to HI
A8R, A22K(N(eps)tetradecanedioyl-4xgGlu), B3E, B26E, B28E, B29R, desB30 human insulin (ligand, not fully specified; Lys A22 acylated on N(eps) with tetradecanedioyl-4xgGlu, Two-chain acylated insulin analogue; also called Ex. No. 23) chain 1: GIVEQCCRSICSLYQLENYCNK chain 2: FVEQHLCGSHLVEALYLVCGERGFFETER	relative binding affinity (% rel to HI)	229 % rel to HI
A14E, A22K(N(eps)tetradecanedioyl-4xgGlu), B3Q, B27E, B28E, B29R, desB30 human insulin (ligand, not fully specified; Lys A22 acylated on N(eps) with tetradecanedioyl-4xgGlu, also called Ex. No. 9) chain 1: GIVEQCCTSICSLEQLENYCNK chain 2: FVQQHLCGSHLVEALYLVCGERGFFYEER	relative binding affinity (% rel to HI)	83 % rel to HI
A14E, A22K(N(eps)tetradecanedioyl-gGlu-2xOEG), B3E, B27E, B28E, B29R, desB30 human insulin (ligand, not fully specified; Lys A22 acylated on N(eps) with tetradecanedioyl-gGlu-2xOEG, Two-chain acylated insulin analogue; also called Ex. No. 2) chain 1: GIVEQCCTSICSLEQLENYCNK chain 2: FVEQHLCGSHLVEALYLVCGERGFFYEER	relative binding affinity (% rel to HI)	60.4 % rel to HI
A8R, A22K(N(eps)tetradecanedioyl-4xgGlu), B3E, B26E, B27E, B28R, desB29, desB30 human insulin (ligand, not fully specified; Lys A22 acylated on N(eps) with tetradecanedioyl-4xgGlu, Two-chain acylated insulin analogue; also called Ex. No. 19) chain 1: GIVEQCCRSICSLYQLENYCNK chain 2: FVEQHLCGSHLVEALYLVCGERGFFEER	relative binding affinity (% rel to HI)	260 % rel to HI
A8R, A22K(N(eps)tetradecanedioyl-4xgGlu), B3E, B27E, B28E, B29R, desB30 human insulin (ligand, not fully specified; Lys A22 acylated on N(eps) with tetradecanedioyl-4xgGlu, Two-chain acylated insulin analogue; also called Ex. No. 24) chain 1: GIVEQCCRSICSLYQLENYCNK chain 2: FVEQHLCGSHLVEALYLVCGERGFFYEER	relative binding affinity (% rel to HI)	274 % rel to HI

Query: Bench note: what relative binding affinity (% rel to HI) did A14E, A22K(N(eps)hexadecanedioyl-4xgGlu), B3E, B27E, B28E, B29R, desB30 human insulin (ligand, not fully specified; Lys A22 acylated on N(eps) with hexadecanedioyl-4xgGlu, Two-chain acylated insulin analogue; also called Ex. No. 27) chain 1: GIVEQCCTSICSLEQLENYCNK chain 2: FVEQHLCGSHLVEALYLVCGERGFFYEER show?
Result: 114 % rel to HI
